Data origin, for the record: PubChem BioAssay (NCI)

# Test system: A549 NSCLC
# ASSAY_COMMENT: NCI tumour cell line growth inhibition, 48 h
Documented TGI across a set of molecules

{"MOLECULE": "C(/C=N/NC1=NCCCN1)=N\\NC1=NCCCN1", "MEASURED_TARGET": "A549 NSCLC", "TGI": "> 100 µM"}
{"MOLECULE": "O=C1c2ccccc2C(=O)c2c(O)c(O)cc(O)c21", "MEASURED_TARGET": "A549 NSCLC", "TGI": "> 100 µM"}
{"MOLECULE": "CC1C(=O)N(C)C2(CO)C(=O)O[C@H](C)C12O (stereo partly drawn)", "MEASURED_TARGET": "A549 NSCLC", "TGI": "> 100 µM"}
{"MOLECULE": "C=C1CC(COc2ccc3ccc(=O)oc3c2)(c2ccccc2)OC1=O (stereo not drawn)", "MEASURED_TARGET": "A549 NSCLC", "TGI": "27.8 µM"}
{"MOLECULE": "CO[C@H]1CC[C@@]2(C)C(=CC[C@H]3[C@@H]4C[C@H](O)C[C@@]4(C)CC[C@@H]32)C1", "MEASURED_TARGET": "A549 NSCLC", "TGI": "19.6 µM"}
{"MOLECULE": "CN1CCN(Cc2ccc(Nc3ncc(Cl)c(Nc4ccccc4S(=O)(=O)N(C)C)n3)cc2)CC1", "MEASURED_TARGET": "A549 NSCLC", "TGI": "1.7 µM"}
{"MOLECULE": "O=C1/C(=C/c2ccccc2)CCCC/C1=C\\c1ccccc1", "MEASURED_TARGET": "A549 NSCLC", "TGI": "> 100 µM"}
{"MOLECULE": "O=C1c2cccnc2C(=O)c2c1nc1ccccc1c2-c1cncc(-c2c3c(nc4ccccc24)C(=O)c2cccnc2C3=O)c1", "MEASURED_TARGET": "A549 NSCLC", "TGI": "2.6 µM"}

###

Catalogue of TGI readings, one per entry.
# Tested on: DU-145 prostate
# ASSAY_COMMENT: NCI tumour cell line growth inhibition, 48 h
VALUE_KIND: TGI

{"COMPOUND": "COc1ccc(N2C(=O)/C(=C\\c3cc(OC)c(OC)c(OC)c3)S(=O)(=O)C2c2ccccc2)cc1 (centres undefined)", "RESULT": "> 100 µM"}
{"COMPOUND": "C#C[C@]1(O)CC[C@H]2[C@@H]3CCC4=C/C(=N\\OCCN5CCCC5)CC[C@]4(C)[C@H]3CC[C@@]21C", "RESULT": "41 µM"}
{"COMPOUND": "CC1=CCC[C@]2(C)C1=CC(=O)O[C@H]2c1ccoc1", "RESULT": "> 100 µM"}
{"COMPOUND": "CCOC(=O)Oc1cc2c(ccn2C)c2c1c1ccccc1n2C(=O)OCC", "RESULT": "> 100 µM"}
{"COMPOUND": "Nc1ccn([C@@H]2C=C(CO)[C@@H](O)[C@H]2O)c(=O)n1", "RESULT": "500 µM"}
{"COMPOUND": "COc1cc(-c2nc3ccccc3s2)ccc1OCc1nc2n(n1)S(=O)(=O)c1ccccc1N2C", "RESULT": "> 100 µM"}
{"COMPOUND": "COc1ccccc1N1C(=O)/C(=C\\c2cc(OC)c(OC)c(OC)c2)S(=O)(=O)C1c1ccccc1 (centres undefined)", "RESULT": "> 100 µM"}
{"COMPOUND": "Cc1cc(NCC2CC/C(=C\\C=C\\c3ccccc3)C2=O)no1 (centres undefined)", "RESULT": "> 100 µM"}
{"COMPOUND": "C/C(=C\\c1ccn(-c2ccc(N)cc2)n1)[C@@H]1C[C@@H]2O[C@]2(C)CCC[C@H](C)[C@H](O)[C@@H](C)C(=O)C(C)(C)[C@@H](O)CC(=O)O1", "RESULT": "0.577 µM"}
